I'd appreciate it if you could supply huEGFR+ mcl-1-/- MEF EC50 values for the items below.
Biological target: human EGFR (huEGFR) over-expressed on mcl-1-/- mouse embryonic fibroblasts (human, UniProt P00533 25-1210)
Experiment: cell-based or functional assay
Numbers only, in nM.

1) AbK-SR (antibody, human IgG1, kappa, V domains shown, synthon SR on reduced interchain cysteines; average DAR 2.3 per ADC) VH: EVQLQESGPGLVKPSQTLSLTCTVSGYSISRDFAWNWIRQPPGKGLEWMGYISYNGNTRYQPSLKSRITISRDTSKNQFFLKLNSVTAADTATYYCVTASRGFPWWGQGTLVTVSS VL: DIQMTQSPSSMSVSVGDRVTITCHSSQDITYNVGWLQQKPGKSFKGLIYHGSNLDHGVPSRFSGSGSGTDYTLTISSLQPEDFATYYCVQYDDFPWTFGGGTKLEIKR; 8.9

Next:
Quick one: give measured huEGFR+ mcl-1-/- MEF EC50 for AbB-LB (antibody, human IgG1, kappa, V domains shown, synthon LB on reduced interchain cysteines; average DAR 1.8 per ADC) VH: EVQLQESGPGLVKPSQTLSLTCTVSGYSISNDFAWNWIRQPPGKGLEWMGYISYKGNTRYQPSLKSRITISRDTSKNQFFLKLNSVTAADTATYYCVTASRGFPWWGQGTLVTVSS VL: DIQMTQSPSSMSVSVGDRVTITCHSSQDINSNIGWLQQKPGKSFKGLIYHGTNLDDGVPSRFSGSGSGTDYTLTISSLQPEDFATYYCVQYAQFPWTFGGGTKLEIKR 31

Reference source: patent US20240199745A1
